Attribute: % recovery by Rabbit Polyclonal Antibody
Tested on: rabbit anti-PIF polyclonal antibody
METHOD NOTES: PIF colorimetric ELISA using rabbit polyclonal antibody, epitope mapping with PIF peptides of various length
Type: binding
PARTICULARS: spike concentration 200 ng/ml; representative value of three repeats
Numbers only; they are read as %.

substance="P5-10: PIF peptide, amino acid locations 5-10 (K P G S A N) (KPGSAN) [Clone P5-10]" reported_endpoint="% recovery by Rabbit Polyclonal Antibody" quantity_unit=% value_measured=0
substance="P1-7: PIF peptide, amino acid locations 1-7 (M V R I K P G) (MVRIKPG) [Clone P1-7]" reported_endpoint="% recovery by Rabbit Polyclonal Antibody" quantity_unit=% value_measured=0
substance="P10-15: PIF peptide, amino acid locations 10-15 (N K P S D D) (NKPSDD) [Clone P10-15]" reported_endpoint="% recovery by Rabbit Polyclonal Antibody" quantity_unit=% value_measured=0

Now take the following substance into account.
May I ask what % recovery by Rabbit Polyclonal Antibody has been recorded for P1-13: PIF peptide, amino acid locations 1-13 (M V R I K P G S A N K P S) (MVRIKPGSANKPS) [Clone P1-13] ?
31.1

Values were extracted from patent US20230400471A1.
